Recorded values, source patent US9958439B2.

# Conditions used: Cellulobiose 5-0.019 mg/ml, 3 μM probe, probe-specific excitation λ, emission 545 nm
Quantity: RFU change (Correlation analysis)

Guide cases for RFU change (Correlation analysis), answers given:
Compound	Experimental value
Cl.Cl.O=C(Cc1cc(-c2cccs2)sc1-c1ccc(-c2sc(-c3cccs3)cc2CC(=O)NCCc2c[nH]cn2)s1)NCCc1c[nH]cn1 [pHTA-His]	Unclear
Cl.Cl.N=C(N)NCCC[C@H](NC(=O)Cc1cc(-c2cccs2)sc1-c1ccc(-c2sc(-c3cccs3)cc2CC(=O)N[C@@H](CCCNC(=N)N)C(=O)O)s1)C(=O)O [pHTA-Arg]	Unclear
O=C([O-])C[C@H](NC(=O)Cc1cc(-c2cccs2)sc1-c1ccc(-c2sc(-c3cccs3)cc2CC(=O)N[C@@H](CC(=O)[O-])C(=O)[O-])s1)C(=O)[O-].[Na+].[Na+].[Na+].[Na+] [pHTA-Asp]	Increases
O=C([O-])CC[C@H](NC(=O)Cc1cc(-c2cccs2)sc1-c1ccc(-c2sc(-c3cccs3)cc2CC(=O)N[C@@H](CCC(=O)[O-])C(=O)[O-])s1)C(=O)[O-].[Na+].[Na+].[Na+].[Na+] [pHTA-Glu]	Increases

We next turn to a different compound, shown below.
Q: Item Cl.Cl.NCCc1cc(-c2cccs2)sc1-c1ccc(-c2sc(-c3cccs3)cc2CCN)s1 [pHTEA, penta Hydrogen Thiophene Ethanol Amine] has what recorded RFU change (Correlation analysis)?
A: Unclear
